inhibition reference
# test_system: Integrin beta-1 (Homo sapiens) + Integrin alpha-4 (Homo sapiens) (UniProt P13612+P05556)
# Sequence (P05556 whole entry, looked up): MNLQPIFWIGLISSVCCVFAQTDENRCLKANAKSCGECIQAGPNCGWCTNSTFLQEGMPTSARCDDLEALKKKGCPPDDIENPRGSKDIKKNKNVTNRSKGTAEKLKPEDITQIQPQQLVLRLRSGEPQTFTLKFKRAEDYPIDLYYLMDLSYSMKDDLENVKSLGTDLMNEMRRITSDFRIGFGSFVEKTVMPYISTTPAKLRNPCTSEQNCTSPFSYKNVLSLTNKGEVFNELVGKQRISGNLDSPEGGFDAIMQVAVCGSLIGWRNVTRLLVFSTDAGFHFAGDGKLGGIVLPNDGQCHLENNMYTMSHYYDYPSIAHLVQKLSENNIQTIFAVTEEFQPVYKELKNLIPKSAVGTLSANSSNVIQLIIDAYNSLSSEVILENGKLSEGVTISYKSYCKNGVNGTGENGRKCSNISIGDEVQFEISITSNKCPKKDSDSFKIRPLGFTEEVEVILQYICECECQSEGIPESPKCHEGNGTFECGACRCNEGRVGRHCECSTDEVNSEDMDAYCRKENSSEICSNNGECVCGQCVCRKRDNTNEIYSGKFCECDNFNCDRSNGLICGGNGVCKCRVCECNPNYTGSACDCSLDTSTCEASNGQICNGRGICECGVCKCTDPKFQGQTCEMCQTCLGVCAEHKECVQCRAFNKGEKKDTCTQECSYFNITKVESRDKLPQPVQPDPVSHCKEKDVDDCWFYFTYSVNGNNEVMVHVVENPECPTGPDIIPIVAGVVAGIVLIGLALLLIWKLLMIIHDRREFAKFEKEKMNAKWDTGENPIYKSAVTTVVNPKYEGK
# Sequence (P13612 whole entry, looked up): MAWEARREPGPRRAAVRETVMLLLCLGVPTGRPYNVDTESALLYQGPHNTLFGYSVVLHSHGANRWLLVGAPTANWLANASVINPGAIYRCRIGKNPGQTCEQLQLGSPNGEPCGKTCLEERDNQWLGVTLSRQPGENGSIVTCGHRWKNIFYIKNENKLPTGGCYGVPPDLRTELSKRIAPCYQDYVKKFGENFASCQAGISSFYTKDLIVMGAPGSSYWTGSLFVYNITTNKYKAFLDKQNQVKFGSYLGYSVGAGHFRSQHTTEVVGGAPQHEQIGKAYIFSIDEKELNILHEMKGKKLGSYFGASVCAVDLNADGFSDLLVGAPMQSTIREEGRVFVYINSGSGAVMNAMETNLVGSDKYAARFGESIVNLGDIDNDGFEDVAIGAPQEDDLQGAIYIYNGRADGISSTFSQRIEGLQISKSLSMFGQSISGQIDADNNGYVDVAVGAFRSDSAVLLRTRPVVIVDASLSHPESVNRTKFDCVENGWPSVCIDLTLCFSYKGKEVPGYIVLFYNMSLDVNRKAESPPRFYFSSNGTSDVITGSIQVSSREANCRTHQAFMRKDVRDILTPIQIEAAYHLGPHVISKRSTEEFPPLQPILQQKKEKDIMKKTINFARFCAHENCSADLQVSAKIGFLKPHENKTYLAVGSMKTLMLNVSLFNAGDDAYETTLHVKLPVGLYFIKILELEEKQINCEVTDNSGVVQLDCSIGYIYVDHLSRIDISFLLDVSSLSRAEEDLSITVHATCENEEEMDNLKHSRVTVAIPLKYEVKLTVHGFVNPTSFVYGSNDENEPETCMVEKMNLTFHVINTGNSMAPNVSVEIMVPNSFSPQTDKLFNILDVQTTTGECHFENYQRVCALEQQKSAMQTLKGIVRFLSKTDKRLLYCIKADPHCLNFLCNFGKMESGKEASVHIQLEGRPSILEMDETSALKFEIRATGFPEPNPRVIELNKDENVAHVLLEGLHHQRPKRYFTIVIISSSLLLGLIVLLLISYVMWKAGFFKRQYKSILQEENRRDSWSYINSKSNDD
# protocol_description: inhibition of HUTS-21 binding to VLA-4, pilot screen, VLA-4 allosteric modulator project, U937 cells, HUTS-21 mAb, flow cytometry, validation set (AID 2674);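 note: antibody binding induced by the VLA-4 ligand LDV present at three times its Kd; 0% = LDV ligand with antibody and no compound and 100% = antibody without LDV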
# cond: HUTS-21 LIBS mAb binding, at 6.7 µM, active compounds read high, binding induced by LDV ligand
Provide only the numeric value, understood in %.

Past entries and their recorded results:
compound="O=C(OCC1OC2OC3(CCCCC3)OC2C2OC3(CCCCC3)OC12)c1ccccc1 (stereo not given)" test_system="Integrin beta-1 (Homo sapiens) + Integrin alpha-4 (Homo sapiens) (UniProt P13612+P05556)" experimental_value=5.49
compound=CCOc1ccc(CCn2c(-c3ccco3)nc3ccccc3c2=O)cc1OCC test_system="Integrin beta-1 (Homo sapiens) + Integrin alpha-4 (Homo sapiens) (UniProt P13612+P05556)" experimental_value=-18.1

Sample CN(C)CCOC(C)(c1ccccc1)c1ccccn1 (stereo not given) — what was its inhibition? -1.49

Sample COc1ccc(C2N3CC4(C)CN2CC(C)(C3)C4)cc1OC (stereo not given) — what was its inhibition? -0.24

Sample OC(CCN1CCCCC1)(c1ccccc1)C1CCCCC1 (stereo not given) — what was its inhibition? 0

Sample CC(C)Oc1ccc(C(CC(=O)O)c2ccc(F)cc2)cc1 (stereo not given) — what was its inhibition? 9.09

Sample Cn1c2c(c(=O)[nH]c1=O)C(c1ccc(O)cc1)C1=C(N2)c2ccccc2C1=O (stereo not given) — what was its inhibition? -3.04

Sample Cc1cnc(C(=O)N2CCCC(C(=O)c3ccc(Cl)cc3C)C2)cn1 (stereo not given) — what was its inhibition? -2.11

Sample C[C@H]1C[C@H]2[C@@H]3CCC4=CC(=O)C=C[C@]4(C)[C@@]3(Cl)[C@@H](O)C[C@]2(C)[C@@]1(O)C(=O)CO — what was its inhibition? 4.42

Sample O=[N+]([O-])c1ccc2cn[nH]c2c1 — what was its inhibition? 12.8

Sample C[N+]12CCCCC1C(COC(=O)c1ccc3c(c1)OCO3)CCC2 (stereo not given) — what was its inhibition? 10.9

Sample Cc1cc(=O)oc(C)c1C(=O)NCCC(C)C — what was its inhibition? -1.17

* * *

# protocol_description: AGP1-GFP expression modulators, hit retest, confirmation, cell-based, flow cytometry, S. cerevisiae, cherry picks (AID 2273);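 note: median GFP channel fluorescence over the whole cell population gate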
# cond: S. cerevisiae AGP1-GFP strain, 3 h, at 10 µM
Calls of active or inactive are those of the source.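 Rule for the calls: active = GFP response above 150% of the DMSO level; inconclusive = fewer than 70 events counted for a yeast strain; inactive = the rest.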
GFP response, % of DMSO reference

compound=COc1cccc2c1Oc1ncccc1N(C(=O)CCC(=O)NCc1ccccc1F)C2 measure="GFP response, % of DMSO" experimental_value="105% (inactive)"
compound=COCc1nnc(NC(=O)c2ccc(S(=O)(=O)N3CCCCCC3)cc2)o1 measure="GFP response, % of DMSO" experimental_value="101% (inactive)"
compound=Cc1cc(NC(=O)c2cc3ccccc3o2)ccc1NC(=O)c1ccccc1 measure="GFP response, % of DMSO" experimental_value="95.4% (inactive)"

Sample O=C1C2C3C=CC(CNS(=O)(=O)c4ccccc4[N+](=O)[O-])(O3)C2C(=O)N1c1ccccc1 (configuration not stated) — what was its GFP response, % of DMSO? 101% (inactive)

* * *

# test_system: AP-2 complex subunit beta (Homo sapiens)
# protocol_description: inhibitors of arrestin peptide binding to AP2, pilot screen, biochemical, validation set, GST-AP2 beads, flow cytometry (AID 504541);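 note: AP2 carries R879A mutation and is captured from E. coli lysate; bead-bound FITC arrestin peptide fluorescence measuring arrestin peptide binding to AP2; 0% = DMSO wells and 100% = excess unlabeled arrestin peptide control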
# cond: FITC arrestin peptide, at 10 µM, active compounds read high, AP2 beta2 appendage fragment, R879A mutant
inhibition reference
Provide only the numeric value, understood in %.

Past entries and their recorded results:
compound=O=C(/C=C/c1ccco1)N1CCN(c2ccccc2)CC1 test_system="AP-2 complex subunit beta (Homo sapiens)" measure=inhibition experimental_value=6.32
compound=NC12CC3CC(C1)CC(O)(C3)C2 test_system="AP-2 complex subunit beta (Homo sapiens)" measure=inhibition experimental_value=-6.38
compound="COc1ccc(CCN=C(N)C(C)c2ccccc2)cc1OC (stereo unspecified)" test_system="AP-2 complex subunit beta (Homo sapiens)" measure=inhibition experimental_value=-6.07
compound=Cc1ccccc1-c1coc2cc(O)ccc2c1=O test_system="AP-2 complex subunit beta (Homo sapiens)" measure=inhibition experimental_value=30.2
compound=CC(C)C[C@H](NC(=O)NC(C)C)C(=O)O test_system="AP-2 complex subunit beta (Homo sapiens)" measure=inhibition experimental_value=-6.27

Note: attention shifts to another entry.
Sample CC(=O)OCC(=O)[C@@]12OC(C)(C)O[C@@H]1C[C@H]1[C@@H]3C[C@H](F)C4=CC(=O)C=C[C@]4(C)[C@@]3(F)[C@@H](O)C[C@@]12C — what was its inhibition? 2.71
